tested on: bermudagrass (Cynodon dactylon); assay: Test B pre-/postemergence plant response; format: in vivo; conditions: Postemergence, 125 g ai/ha; scale 0 to 100 (0 no effect, 100 complete control)
Recorded Metric: Plant response rating, Bermudagrass
// return just the number, without any unit appended

bermudagrass (Cynodon dactylon) Plant response rating, Bermudagrass of `O=C1CCCC(O)=C1C(=O)c1cnc(C2CC2)n(C2CCCCC2)c1=O` is 90

bermudagrass (Cynodon dactylon) Plant response rating, Bermudagrass of `O=C1CCCC(O)=C1C(=O)c1cnc(-c2ccsc2)n(C2CCOCC2)c1=O` is 95

bermudagrass (Cynodon dactylon) Plant response rating, Bermudagrass of `CCCn1c(-c2cccc(OC)c2)ncc(C(=O)C2=C(O)CCCC2=O)c1=O` is 75

bermudagrass (Cynodon dactylon) Plant response rating, Bermudagrass of `CCCn1c(-c2cc(Cl)cc(Cl)c2)ncc(C(=O)C2=C(O)CCCC2=O)c1=O` is 100

Next compound, Plant response rating, Bermudagrass to be filled in.
bermudagrass (Cynodon dactylon) Plant response rating, Bermudagrass of `O=C1CCCC(O)=C1C(=O)c1cnc(-c2ccccc2)n(C2CCOCC2)c1=O` is 95

* * *

The following compounds are listed with their measured Plant response rating, Dayflower, VA values.
system: dayflower (Virginia (VA) dayflower, Commelina virginica); assay: Test D pre-/postemergence plant response; type: in vivo; settings: Postemergence, 125 g ai/ha; scale 0 to 100 (0 no effect, 100 complete control)
// return just the number, without any unit appended

Lookup result for `O=C1CCCC(O)=C1C(=O)c1cnc(C2CC2)n(-c2ccccc2)c1=O` ; measured Plant response rating, Dayflower, VA: 70

Lookup result for `O=C1CCCC(O)=C1C(=O)c1cnc(-c2ccccc2)n(C2CCCCC2)c1=O` ; measured Plant response rating, Dayflower, VA: 70

Lookup result for `O=C1CCCC(O)=C1C(=O)c1cnc(-c2cccnc2)n(-c2ccccc2)c1=O` ; measured Plant response rating, Dayflower, VA: 60

Others:
Lookup result for COCCCn1c(-c2cc(F)cc(F)c2)ncc(C(=O)C2=C(O)C3CCC(C3)C2=O)c1=O (stereo not shown) ; measured Plant response rating, Dayflower, VA: 65

* * *

system: canarygrass (Phalaris minor); assay: Test B postemergence plant response; format: in vivo; details: Postemergence, 125 g ai/ha; visual rating after 13 to 15 days, scale 0 (no effect) to 100 (complete control)
The following molecules are listed with their measured Plant response rating, Canarygrass values.
// return just the number, without any unit appended

Lookup result for `CCOCCn1c(-c2ccccc2)ncc(C(=O)C2=C(O)CCCC2=O)c1=O` ; measured Plant response rating, Canarygrass: 30

Lookup result for `O=C1CCCC(O)=C1C(=O)c1cnc(C2CC2)n(-c2ccccc2)c1=O` ; measured Plant response rating, Canarygrass: 35

Lookup result for `Cc1cccc(-n2c(-c3ccccc3)ncc(C(=O)C3=C(O)CCCC3=O)c2=O)c1C` ; measured Plant response rating, Canarygrass: 30

Lookup result for `Cc1ccc(C)c(-n2c(-c3ccccc3)ncc(C(=O)C3=C(O)CCCC3=O)c2=O)c1` ; measured Plant response rating, Canarygrass: 40

Lookup result for `O=C1CCCC([O-])=C1C(=O)c1cnc(-c2ccccc2)n(-c2ccccc2)c1=O.[K+]` ; measured Plant response rating, Canarygrass: 20

Lookup result for `O=C1CCCC(O)=C1C(=O)c1cnc(-c2ccc(Br)cc2)n(-c2ccccc2)c1=O` ; measured Plant response rating, Canarygrass: 85

Others:
Lookup result for `O=C1CCCC(O)=C1C(=O)c1cnc(-c2ccccc2)n(-c2ccccc2Br)c1=O` ; measured Plant response rating, Canarygrass: 10

Lookup result for `CCCc1ncc(C(=O)C2=C(O)CCCC2=O)c(=O)n1CCC` ; measured Plant response rating, Canarygrass: 0

Lookup result for `Cc1ccc(-n2c(-c3cccc(Cl)c3)ncc(C(=O)C3=C(O)CCCC3=O)c2=O)cc1` ; measured Plant response rating, Canarygrass: 0

* * *

The following molecules are listed with their measured Plant response rating, Foxtail, Green values.
test system: green foxtail (Setaria viridis); assay: Test B pre-/postemergence plant response; assay type: in vivo; settings: Postemergence, 125 g ai/ha; visual rating after 13 to 15 days, scale 0 (no effect) to 100 (complete control)
// return just the number, without any unit appended

green foxtail (Setaria viridis) Plant response rating, Foxtail, Green of `Cc1ccc(Cl)cc1-n1c(-c2ccccc2)ncc(C(=O)C2=C(O)CCCC2=O)c1=O` is 98

green foxtail (Setaria viridis) Plant response rating, Foxtail, Green of `Cc1ccc(F)c(-n2c(-c3ccccc3)ncc(C(=O)C3=C(O)CCCC3=O)c2=O)c1` is 95

green foxtail (Setaria viridis) Plant response rating, Foxtail, Green of `O=C1CCCC(O)=C1C(=O)c1cnc(-c2cccc(Cl)c2)n(-c2ccccc2)c1=O` is 90

Others:
green foxtail (Setaria viridis) Plant response rating, Foxtail, Green of `O=C1CCCC(O)=C1C(=O)c1cnc(-c2ccccc2)n(-c2ccc(F)cc2)c1=O` is 90

* * *

The following compounds are listed with their measured Plant response rating, Pigweed values.
system: pigweed (Amaranthus retroflexus); assay: Test B pre-/postemergence plant response; type: in vivo; conditions: Postemergence, 62 g ai/ha; scale 0 (no effect) to 100 (complete control); 13 to 15 days
// return just the number, without any unit appended

Observe how each entry below is paired with its result.
Lookup result for `Cc1cccc(-n2c(-c3ccccc3)ncc(C(=O)C3=C(O)CCCC3=O)c2=O)c1F` ; measured Plant response rating, Pigweed: 95

Lookup result for `O=C1CCCC([O-])=C1C(=O)c1cnc(-c2ccccc2)n(-c2ccccc2)c1=O.[K+]` ; measured Plant response rating, Pigweed: 80

Lookup result for `CCn1c(-c2ccccc2)ncc(C(=O)C2=C(O)CCCC2=O)c1=O` ; measured Plant response rating, Pigweed: 90

Next compound, Plant response rating, Pigweed to be filled in.
Lookup result for `Cc1ccc(Cl)cc1-n1c(-c2ccccc2)ncc(C(=O)C2=C(O)CCCC2=O)c1=O` ; measured Plant response rating, Pigweed: 90

* * *

Tested on: blackgrass (Alopecurus myosuroides)
Experiment: Test B pre-/postemergence plant response
Format: in vivo
Conditions: Postemergence, 250 g ai/ha; scale 0 to 100 (0 no effect, 100 complete control)
Text: […] Treated plants and controls were maintained in a greenhouse for 13 to 15 days, after which time all treated plants were visually evaluated and compared to controls. […]
Recorded Metric: Plant response rating, Blackgrass

Observe how each entry below is paired with its result.
Lookup result for `COCCOCCn1c(-c2ccccc2)ncc(C(=O)C2=C(O)CCCC2=O)c1=O` ; measured Plant response rating, Blackgrass: 50

Lookup result for `COCCCn1c(-c2cccc(F)c2)ncc(C(=O)C2=C(O)CCCC2=O)c1=O` ; measured Plant response rating, Blackgrass: 45

Lookup result for `Cc1ccc(F)c(-n2c(-c3ccccc3)ncc(C(=O)C3=C(O)CCCC3=O)c2=O)c1` ; measured Plant response rating, Blackgrass: 55

Others:
Lookup result for `COCCn1c(-c2cccs2)ncc(C(=O)C2=C(O)CCCC2=O)c1=O` ; measured Plant response rating, Blackgrass: 30

Lookup result for `O=C1CCCC(O)=C1C(=O)c1cnc(C2CCCC2)n(-c2ccccc2)c1=O` ; measured Plant response rating, Blackgrass: 5

* * *

Tested on: giant foxtail (Setaria faberii)
Assay: Test A pre-/postemergence plant response
Type: in vivo
Settings: Preemergence, 500 g ai/ha; visual injury, 0 to 100 scale (0 no effect, 100 complete control), approx. ten days
From the text: Seeds of barnyardgrass (Echinochloa crus-galli), large crabgrass (Digitaria sanguinalis), giant foxtail (Setaria faberii), morningglory (Ipomoea spp.), pigweed (Amaranthus retroflexus), velvetleaf (Abutilon theophrasti), wheat (Triticum aestivum) and corn (Zea mays) were planted into a blend of loam soil and sand and treated preemergence with a directed soil spray using test chemicals formulated in a non-phytotoxic solvent mixture which included a surfactant. […]
Recorded Metric: Plant response rating, Foxtail, Giant
// return just the number, without any unit appended

Observe how each entry below is paired with its result.
Lookup result for `Cc1ccc(Cl)cc1-n1c(-c2ccccc2)ncc(C(=O)C2=C(O)CCCC2=O)c1=O` ; measured Plant response rating, Foxtail, Giant: 100

Lookup result for `CCCn1c(C2CC2)ncc(C(=O)C2=C(O)CCCC2=O)c1=O` ; measured Plant response rating, Foxtail, Giant: 70

Lookup result for `O=C1CCCC(O)=C1C(=O)c1cnc(-c2ccccc2)n(-c2ccc(F)cc2)c1=O` ; measured Plant response rating, Foxtail, Giant: 100

Lookup result for `CCCn1c(-c2ccccc2)ncc(C(=O)C2=C(O)CCCC2=O)c1=O` ; measured Plant response rating, Foxtail, Giant: 80

Others:
Lookup result for `COc1ccccc1-n1c(-c2ccccc2)ncc(C(=O)C2=C(O)CCCC2=O)c1=O` ; measured Plant response rating, Foxtail, Giant: 70

* * *

test system: sunflower (common oilseed sunflower, Helianthus annuus); test: Test B pre-/postemergence plant response; type: in vivo; conditions: Preemergence, 125 g ai/ha; 0 to 100 scale
Mark TRUE for Sunflower plant response rating under 80, FALSE if at or over.

These recorded examples may help you get a feel for the data.
Qu. Strictly below 80 in Sunflower plant response rating? `Cc1cccc(-n2c(-c3ccccc3)ncc(C(=O)C3=C(O)CCCC3=O)c2=O)c1C`
Ans. FALSE

Qu. Strictly below 80 in Sunflower plant response rating? `CCn1c(-c2ccccc2)ncc(C(=O)C2=C(O)CCCC2=O)c1=O`
Ans. TRUE

Qu. Strictly below 80 in Sunflower plant response rating? `O=C1CCCC(O)=C1C(=O)c1cnc(-c2ccccc2)n(-c2ccccc2Br)c1=O`
Ans. TRUE

Others:
Qu. Strictly below 80 in Sunflower plant response rating? `Cc1cccc(-n2c(-c3cccc(Cl)c3)ncc(C(=O)C3=C(O)CCCC3=O)c2=O)c1`
Ans. TRUE
